Ref: ChEMBL document CHEMBL1153091

assay: Solubility in japanese pharmacopoeia first fluid at pH 1.2; assay type: physicochemical
Give measured solubility for each item. Keep answers brief.
// note: answer is a bare numeric in µg/mL

Quick one: solubility for `CN1CCc2nc(C(=O)N[C@@H]3C[C@@H](C(=O)N(C)C)CC[C@@H]3NC(=O)c3cc4cc(Cl)ncc4[nH]3)sc2C1` ?
1000

Quick one: solubility for CN1CCc2nc(C(=O)NC3C[C@@H](C(=O)N(C)C)CCC3NC(=O)c3cc4cc(Br)ccc4[nH]3)sc2C1 (single isomer, unassigned) ?
100

Quick one: solubility for `CN1CCc2nc(C(=O)N[C@@H]3C[C@@H](C(=O)N(C)C)CC[C@@H]3NC(=O)c3[nH]c4ccc(Cl)cc4c3C=O)sc2C1` ?
970

Quick one: solubility for `CN1CCc2nc(C(=O)N[C@@H]3C[C@@H](C(=O)N(C)C)CC[C@@H]3NC(=O)c3[nH]c4ccc(F)cc4c3Cl)sc2C1` ?
1000

Quick one: solubility for `CN1CCc2nc(C(=O)N[C@@H]3C[C@@H](C(=O)N(C)C)CC[C@@H]3NC(=O)c3[nH]c4ccc(Cl)cc4c3C(=O)N(C)C)sc2C1` ?
1000

Quick one: solubility for `CN1CCc2nc(C(=O)N[C@@H]3C[C@@H](C(=O)N(C)C)CC[C@@H]3NC(=O)c3cc4cc(Cl)cc(F)c4[nH]3)sc2C1` ?
110

Quick one: solubility for `CN1CCc2nc(C(=O)N[C@@H]3C[C@@H](C(=O)N(C)C)CC[C@@H]3NC(=O)c3nc4cc(Cl)ccc4[nH]3)sc2C1` ?
600

Quick one: solubility for `CN1CCc2nc(C(=O)N[C@@H]3C[C@@H](C(=O)N(C)C)CC[C@@H]3NC(=O)c3[nH]c4ccc(Cl)cc4c3Br)sc2C1` ?
740

Quick one: solubility for `CN1CCc2nc(C(=O)N[C@@H]3C[C@@H](C(=O)N(C)C)CC[C@@H]3NC(=O)c3cc4cc(F)ccc4[nH]3)sc2C1` ?
550

Quick one: solubility for `CN1CCc2nc(C(=O)N[C@@H]3C[C@@H](C(=O)N(C)C)CC[C@@H]3NC(=O)c3[nH]c4ccc(Cl)cc4c3F)sc2C1` ?
880

Quick one: solubility for `CN1CCc2nc(C(=O)N[C@@H]3C[C@@H](C(=O)N(C)C)CC[C@@H]3NC(=O)c3cc4c(F)c(Cl)ccc4[nH]3)sc2C1` ?
44

Quick one: solubility for `CN1CCc2nc(C(=O)N[C@@H]3C[C@@H](C(=O)N(C)C)CC[C@@H]3NC(=O)c3cc4cc(Cl)ccc4o3)sc2C1` ?
1000

Quick one: solubility for `CN1CCc2nc(C(=O)N[C@@H]3C[C@@H](C(=O)N(C)C)CC[C@@H]3NC(=O)c3cn4ccc(Cl)cc4n3)sc2C1` ?
830

----------
assay: n-octanol to japanese pharmacopoeia second fluid distribution coefficient, log D at pH 6.8; type: physicochemical
ENDPOINT: logD
// response body must contain only the number

Quick one: logD for `CN1CCc2nc(C(=O)N[C@@H]3C[C@@H](C(=O)N(C)C)CC[C@@H]3NC(=O)c3cc4c(F)c(Cl)ccc4[nH]3)sc2C1` ?
3.2

Quick one: logD for `CN1CCc2nc(C(=O)N[C@@H]3C[C@@H](C(=O)N(C)C)CC[C@@H]3NC(=O)c3cn4ccc(Cl)cc4n3)sc2C1` ?
1.3

Quick one: logD for `CN1CCc2nc(C(=O)N[C@@H]3C[C@@H](C(=O)N(C)C)CC[C@@H]3NC(=O)c3[nH]c4ccc(Cl)cc4c3C=O)sc2C1` ?
2.8

Quick one: logD for CN1CCc2nc(C(=O)NC3C[C@@H](C(=O)N(C)C)CCC3NC(=O)c3cc4cc(Br)ccc4[nH]3)sc2C1 (single isomer, unassigned) ?
3

Quick one: logD for `CN1CCc2nc(C(=O)N[C@@H]3C[C@@H](C(=O)N(C)C)CC[C@@H]3NC(=O)c3cc4cc(Cl)cc(F)c4[nH]3)sc2C1` ?
3.1

Quick one: logD for `CN1CCc2nc(C(=O)N[C@@H]3C[C@@H](C(=O)N(C)C)CC[C@@H]3NC(=O)c3[nH]c4ccc(Cl)cc4c3F)sc2C1` ?
3.1

Quick one: logD for `CN1CCc2nc(C(=O)N[C@@H]3C[C@@H](C(=O)N(C)C)CC[C@@H]3NC(=O)c3cc4cc(Cl)ccc4o3)sc2C1` ?
2.4
